Task for the reader: assign each of the following compounds its reported LC50, MW.
System: Maize weevil [Sitophilus Zeamais (Motschulsky)]
Assay text: Maize weevil insecticidal test
Assay type: in vivo
Cond: adult weevils, percent in solution; 48 hours

Before answering, review these 7 worked examples.
CC(C)C(=Nc1ccc(F)c(Cl)c1)OCC#CCOc1ccccc1 [Compound 534] = > 0.01%
Cc1ccc(N=C(OCc2ccc(F)c(Oc3ccccc3)c2)C(C)C)cc1Cl [Compound 356] = > 0.01%
CC(C)C(=Nc1ccc(Cl)c(Cl)c1)OCc1cccc(Oc2ccccc2)c1 [Compound 14] = 0.01%
CC(C)C(=Nc1cccc([N+](=O)[O-])c1)OCc1cccc(Oc2ccc(Cl)cc2)c1 [Compound 271] = > 0.01%
Cc1cccc(N=C(OCc2cccc(Oc3ccc(F)cc3)c2)C(C)C)c1 [Compound 405] = > 0.01%
CC(C)C(=Nc1ccc(F)c(Cl)c1)OCc1cc(Oc2ccc(F)cc2)ccn1 [Compound 529] = > 0.01%
CC(C)C(=Nc1ccc(F)c(Cl)c1)OCc1ccc(F)c(Oc2ccc(Cl)cc2)c1 [Compound 267] = 0.0027%

Query block: Enter reported LC50, MW observed with Maize weevil [Sitophilus Zeamais (Motschulsky)] for CC(C)C(=Nc1ccc(F)c(Cl)c1)OCc1cccc(OCc2ccc(F)cc2)c1 [Compound 490]
Result block: > 0.01%

----------
Tested on: Cabbage Looper [Trichoplusia ni (Hubner)]
Assay text: Cabbage looper insecticidal test
Assay type: in vivo
Cond: second-instar larvae, percent in solution; 3-5 days
Task for the reader: assign each of the following compounds its reported LC50, CL.
Answers are plain numbers, in %.

CC(C)(C)C(=Nc1cccc(C(F)(F)F)c1)OCc1cccc(Oc2ccccc2)c1 = 0.018
CCC(CC)C(=Nc1ccc(C(C)C)cc1)OCc1cccc(Oc2ccccc2)c1 = 0.05
CC(C)C(=Nc1ccc(F)c(Cl)c1F)OCc1ccc(F)c(Oc2ccccc2)c1 = 0.0001

For the 3 compounds below, give their LC50, CL values.
1. CC(C)C(=Nc1ccc(F)c(Cl)c1F)OCc1cccc(Oc2ccc(F)cc2)n1
2. CC(C)C(=Nc1cccc(I)c1)OCc1cccc(Oc2ccccc2)c1
3. CC(C)C(=Nc1ccc(F)c(C(F)(F)F)c1)OCc1ccc(F)c(Oc2ccc(Cl)cc2)c1

Result block:
[0.00005, 0.004, 0.00027]

----------
Test system: Cabbage Looper [Trichoplusia ni (Hubner)]
Assay text: Cabbage looper insecticidal test
Format: in vivo
Cond: second-instar larvae, percent in solution; 3-5 days
Parameter: LC50, CL (%)
Numbers only, in %.

Before answering, review these 10 worked examples.
CCC(C)C(=Nc1ccc(F)c(Cl)c1)OCc1cccc(Oc2ccccc2)c1 (stereo not shown) = 0.0007
CC(C)C(=Nc1ccc(C(C)(C)C)cc1)OCc1cccc(Oc2ccccc2)c1 = 0.004
CC(C)C(=Nc1ccc2c(c1)OC(F)(F)O2)OCc1cccc(Oc2ccc(F)cc2)c1 = 0.00004
CC(C)C(=Nc1ccc(Cl)c(Cl)c1)OCc1cccc(Oc2ccc(Cl)cc2)n1 = 0.00015
CCOc1ccc(N=C(OCc2cccc(Oc3ccccc3)c2)C(C)C)cc1Cl = 0.002
Cc1cccc(N=C(OCc2cccc(Oc3ccccc3)c2)C(C)C)c1 = 0.004
C=C(C)C(=Nc1ccc(C(F)(F)F)cc1)OCc1cccc(Oc2ccc(F)cc2)c1 = 0.0007
CC(C)C(=Nc1ccc(F)c(Cl)c1F)OCc1cccc(Oc2ccc(Cl)cc2)c1 = 0.0002
CCOc1ccc(N=C(OCc2cccc(Oc3ccccc3)c2)C(C)C)cc1 = 0.0022
CCC(C)C(=Nc1ccc(Cl)c(Cl)c1)OCc1cccc(Oc2ccccc2)c1 (stereo not shown) = 0.0023

For the 7 molecules below, give their LC50, CL values.
1. CC(C)(F)C(=Nc1cccc(C(F)(F)F)c1)OCc1cccc(Oc2ccc(F)cc2)c1
2. CC(C)C(=Nc1ccc2c(c1)OCO2)OCc1cccc(Oc2ccc(F)cc2)n1
3. Clc1ccc(N=C(OCc2cccc(Oc3ccccc3)c2)C(Cl)Cl)c2ccccc12
4. CCC(=Nc1ccc2c(c1)OCO2)OCc1cccc(Oc2ccccc2)c1
5. Fc1ccc(N=C(OCc2cccc(Oc3ccccc3)c2)C2CC2)cc1Cl
6. CC(C)C(=Nc1ccc(Br)c(Br)c1)OCc1cccc(Oc2ccccc2)c1
7. CC(Br)C(=Nc1ccc2c(c1)OCO2)OCc1cccc(Oc2ccccc2)c1 (stereo not shown)

Result block:
1. 0.0007
2. 0.0017
3. 0.016
4. 0.004
5. 0.005
6. 0.0035
7. 0.005
